Hi there, I'd appreciate the recorded NI* @ 1% for every entry that follows.
- Test system: nitrification
- protocol summary: Inhibition of nitrification in soil incubation test (ammonium and nitrate content after 14 days)
- condition label: compound at 1% (of nitrogen N); 100 g soil, 10 mg ammonium sulfate-N, 20° C., 0 and 14 days

Need NI* @ 1% for each of these compounds.
1. CC(=O)N1CCSC1=S
2. S=C1NCCS1
3. O=C(Cc1ccccc1)N1CCSC1=S
4. COc1ccc(C(=O)N2CCSC2=S)cc1

Resp:
1: 32.3; 2: 47; 3: 55.3; 4: 27.5

Need NI* @ 1% for each of these compounds.
1. O=C(c1ccc(Cl)cc1)N1CCSC1=S
2. COc1cccc(C(=O)N2CCSC2=S)c1

Resp:
1. 30.7
2. 73.1
